Tested on: A2780 Human ovarian carcinoma
Assay info: IC50 on tumor cell lines, MTT test, A2780
Assay type: cell-based
Condition info: Homo sapiens, 72 h, A2780, 3 days treatment, two separate experiments
pIC50: −log10 of the molar value.
Metric: pIC50

// query Report value only: pIC50, A2780 Human ovarian carcinoma, C=C(CC)C(=O)c1ccc(OCC(=O)O)c(Cl)c1Cl [Ethacrynic acid, reference compound]
// result 4.02 to 4.04

###

System: A2780 Human ovarian carcinoma
Assay info: IC50 on tumor cell lines, MTT test, A2780
Assay type: cell-based
Condition info: A2780, 3 days treatment, two separate experiments
# IC50 annotations

// query Using known records, supply IC50 for C1N2CN3CN1CP(C2)C3.C=C(CC)C(=O)c1ccc(OCC(=O)OCCc2ccccc2)c(Cl)c1Cl.[Cl][Ru][Cl] [Compound 4]
// result ~30 µM

Others:
// query Using known records, supply IC50 for N.N.[Cl][Pt][Cl] [Cisplatin]
// result 10.5 to 11.8 µM
